The reported measurements were obtained from ChEMBL document CHEMBL1201862.

System: SNB-19
Experiment: NCI tumour cell line growth inhibition, 48 h
Calls of active or inactive are those of the source. Rule as the data show it: active = GI50 up to about 1.1 µM and inactive = higher.
property_name: GI50

Problem: Give SNB-19 GI50 for O=C1OC(c2cccc(C(F)(F)F)c2)c2ccc3ccccc3c21 (stereo unspecified)
Solution: > 10 µM (inactive)

----------
System: SN12C
Assay: NCI tumour cell line growth inhibition, 48 h
The source made the active and inactive calls. Cut-off read from the data, not from the text of the source: active = GI50 up to about 1.1 µM and inactive = higher. Where a SMILES comes first, the peptide text is derived from it. [ ]: non-standard residue; d: D form. The star is where a group is joined. ξ: configuration not given here. NMeF = CN[C@@H](Cc1ccccc1)C(=O)O; NMeV = CN[C@H](C(=O)O)C(C)C; ξNMeN = CNC(CC(N)=O)C(=O)O; NMeA = CN[C@@H](C)C(=O)O; ξNMeV = CNC(C(=O)O)C(C)C; Boc = CC(C)(C)OC(=O)*
Answer with one of the outcomes given here: active, inactive

Solved cases (5 shown):
* COc1ccc(-c2onc(-c3c(C)cc(C)cc3C)c2C2=NCCCN2)cc1 | inactive
* N#CC(NNC(=O)Cc1ccccc1)c1ccc(O)cc1 (stereo not drawn) | inactive
* COc1cc(C(=O)N(C)N(C)C)cc(OC)c1OC | inactive
* COC(=O)[C@H](C)N(C)C(=O)C(CC(N)=O)N(C)C(=O)[C@H](Cc1ccccc1)N(C)C(=O)[C@@H]1CCCN1C(=O)[C@H](C(C)C)N(C)C(=O)C(C(C)C)N(C)C(=O)[C@@H](NC(=O)OC(C)(C)C)C(C)C (stereo partly drawn) (Boc-V[ξNMeV][NMeV]P[NMeF][ξNMeN][NMeA]-OMe) | inactive
* C(#Cc1ccccc1)SC1=C(c2ccccc2)S/C(=C(\SC#Cc2ccccc2)c2ccccc2)S1 | inactive

Problem: Please state the recorded outcome for this compound: Cc1ccc(-c2n[nH]c(=O)[nH]2)cc1
Solution: inactive

Problem: Please state the recorded outcome for this compound: CC(=O)OCCCCn1cnc2nc(Nc3ccccc3)nc(Cl)c21
Solution: inactive

Problem: Please state the recorded outcome for this compound: CCOC(=O)NC(=O)c1cn(CCOC(=O)CCCCCCCCC(=O)OCCn2cc(C(=O)NC(=O)OCC)c(=O)[nH]c2=O)c(=O)[nH]c1=O
Solution: inactive

Problem: Please state the recorded outcome for this compound: O/N=C(\C=N\O)c1ccc2c(c1)Sc1ccccc1O2
Solution: inactive

Problem: Please state the recorded outcome for this compound: c1ccc2c(c1)SC1Sc3ccccc3[S+]21 (stereo not drawn)
Solution: inactive
